Cited source: patent US5807535A

Test: Biodistribution of 67Ga complexes in mice
Assay type: in vivo, balb/c mice
Settings: 3 min
QUANTITY_NAME: biodistribution liver (% ID)

| SMI | READING_UNIT | biodistribution liver |
| --- | --- | --- |
| CC(C)(C)c1ccc(O)c(NC(=O)CN(CCN(CC(=O)O)CC(=O)Nc2cc(C(C)(C)C)ccc2O)CC(=O)O)c1 | % ID | 43.23 |
| Cc1cc(C)c(O)c(NC(=O)CN(CCN(CC(=O)O)CC(=O)Nc2cc(C)cc(C)c2O)CC(=O)O)c1 | % ID | 34.06 |

a: O=C(O)CN(CCN(CC(=O)O)CC(=O)Nc1ccc(Cl)cc1O)CC(=O)Nc1ccc(Cl)cc1O
b: O=C(O)CN(CCN(CC(=O)O)CC(=O)Nc1ccccc1O)CC(=O)Nc1ccccc1O
-- ask Field: entry with larger biodistribution liver (options a / b ). Let me know the label of the one you choose.
-- reply a
(a: 35.52 % ID, b: 24.21 % ID)

----------
Experiment: Biodistribution of 99mTc complexes in rats
Type: in vivo, Australian Albino Wistar Rats
Conditions: rat, pancreas, rats, 1 min, read-out: biodistribution pancreas
QUANTITY_NAME: tissue uptake at 1 min (%ID/g)

| MOLECULE | READING_UNIT | tissue uptake at 1 min |
| --- | --- | --- |
| O=C(O)CN(CCN(CC(=O)O)CC(=O)Nc1ccccc1O)CC(=O)Nc1ccccc1O [Compound 1] | %ID/g | 0.51 |
| Nc1ccc(O)c(NC(=O)CN(CCN(CC(=O)O)CC(=O)Nc2cc(N)ccc2O)CC(=O)O)c1 [Compound 5] | %ID/g | 0.73 |
| O=C(O)CN(CCN(CC(=O)O)CC(=O)Nc1ccc(Cl)cc1O)CC(=O)Nc1ccc(Cl)cc1O [Compound 2] | %ID/g | 0.66 |
| CC(C)(C)c1ccc(O)c(NC(=O)CN(CCN(CC(=O)O)CC(=O)Nc2cc(C(C)(C)C)ccc2O)CC(=O)O)c1 [Compound 4] | %ID/g | 0.69 |
| O=C(O)CN(CCN(CC(=O)O)CC(=O)Nc1cc([N+](=O)[O-])ccc1O)CC(=O)Nc1cc([N+](=O)[O-])ccc1O [Compound 3] | %ID/g | 0.41 |

----------
Assay: Biodistribution of 99mTc complexes in rats
Type: in vivo, Australian Albino Wistar Rats
Settings: rat, blood, rats, 1 min, read-out: biodistribution blood
QUANTITY_NAME: tissue uptake at 1 min (%ID/g)

Below, each entry is followed by its recorded tissue uptake at 1 min result.
| SMI | tissue uptake at 1 min, %ID/g |
| --- | --- |
| O=C(O)CN(CCN(CC(=O)O)CC(=O)Nc1ccc(Cl)cc1O)CC(=O)Nc1ccc(Cl)cc1O | 2.77 |
| O=C(O)CN(CCN(CC(=O)O)CC(=O)Nc1cc([N+](=O)[O-])ccc1O)CC(=O)Nc1cc([N+](=O)[O-])ccc1O | 1.83 |
| CC(C)(C)c1ccc(O)c(NC(=O)CN(CCN(CC(=O)O)CC(=O)Nc2cc(C(C)(C)C)ccc2O)CC(=O)O)c1 | 3.96 |

I: Nc1ccc(O)c(NC(=O)CN(CCN(CC(=O)O)CC(=O)Nc2cc(N)ccc2O)CC(=O)O)c1
II: O=C(O)CN(CCN(CC(=O)O)CC(=O)Nc1ccccc1O)CC(=O)Nc1ccccc1O
-- ask Returns: the label, I or II , whose recorded tissue uptake at 1 min is the lower number. Let me know the label of the one you choose.
-- reply II
(II: 1.71 %ID/g, I: 4.22 %ID/g)
